Listed here are compounds together with their documented normalized growth.
assay: chemical genetic growth profiling, strain panel (AID 1159580);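 also: tested at 20 µM; growth read once vehicle control cultures reached saturation at 30 °C; 1 = growth at the plate median or of vehicle wells; lower values mean less growth of the strain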; settings: S. cerevisiae deletion strains, growth OD, locus YHR027C, strain rpn1, stronger effect = lower value
Screen size: about 5,500 compounds; about 2,000 (36%) were called active. About 18% were inconclusive and are not listed. This is one part of the list.
Measure Name: normalized growth

compound="O=C(/C=C/c1ccc(O)c(O)c1)OC(Cc1ccc(O)c(O)c1)C(=O)O (stereo unspecified)" measure_name="normalized growth" observed=1
compound=O=C(/C=C/c1ccc(O)c(O)c1)OCCc1ccccc1 measure_name="normalized growth" observed=0.857
compound=Nc1nc(=S)c2[nH]cnc2[nH]1 measure_name="normalized growth" observed=0.99
compound=O=C(O)/C=C/c1ccc(O)c(O)c1 measure_name="normalized growth" observed=0.992
compound=COc1ccc2c(c1)OC/C(=C\c1ccc(OC)c(O)c1)C2=O measure_name="normalized growth" observed=0.909
compound="C=C[C@@](C)(O)CCC1C(=C)CCC2[C@@](C)(CO)CCC[C@]12C (stereo partly specified)" measure_name="normalized growth" observed=1.02
